ASSAYED_TARGET: UniProt P08183
Sequence (P08183 whole entry): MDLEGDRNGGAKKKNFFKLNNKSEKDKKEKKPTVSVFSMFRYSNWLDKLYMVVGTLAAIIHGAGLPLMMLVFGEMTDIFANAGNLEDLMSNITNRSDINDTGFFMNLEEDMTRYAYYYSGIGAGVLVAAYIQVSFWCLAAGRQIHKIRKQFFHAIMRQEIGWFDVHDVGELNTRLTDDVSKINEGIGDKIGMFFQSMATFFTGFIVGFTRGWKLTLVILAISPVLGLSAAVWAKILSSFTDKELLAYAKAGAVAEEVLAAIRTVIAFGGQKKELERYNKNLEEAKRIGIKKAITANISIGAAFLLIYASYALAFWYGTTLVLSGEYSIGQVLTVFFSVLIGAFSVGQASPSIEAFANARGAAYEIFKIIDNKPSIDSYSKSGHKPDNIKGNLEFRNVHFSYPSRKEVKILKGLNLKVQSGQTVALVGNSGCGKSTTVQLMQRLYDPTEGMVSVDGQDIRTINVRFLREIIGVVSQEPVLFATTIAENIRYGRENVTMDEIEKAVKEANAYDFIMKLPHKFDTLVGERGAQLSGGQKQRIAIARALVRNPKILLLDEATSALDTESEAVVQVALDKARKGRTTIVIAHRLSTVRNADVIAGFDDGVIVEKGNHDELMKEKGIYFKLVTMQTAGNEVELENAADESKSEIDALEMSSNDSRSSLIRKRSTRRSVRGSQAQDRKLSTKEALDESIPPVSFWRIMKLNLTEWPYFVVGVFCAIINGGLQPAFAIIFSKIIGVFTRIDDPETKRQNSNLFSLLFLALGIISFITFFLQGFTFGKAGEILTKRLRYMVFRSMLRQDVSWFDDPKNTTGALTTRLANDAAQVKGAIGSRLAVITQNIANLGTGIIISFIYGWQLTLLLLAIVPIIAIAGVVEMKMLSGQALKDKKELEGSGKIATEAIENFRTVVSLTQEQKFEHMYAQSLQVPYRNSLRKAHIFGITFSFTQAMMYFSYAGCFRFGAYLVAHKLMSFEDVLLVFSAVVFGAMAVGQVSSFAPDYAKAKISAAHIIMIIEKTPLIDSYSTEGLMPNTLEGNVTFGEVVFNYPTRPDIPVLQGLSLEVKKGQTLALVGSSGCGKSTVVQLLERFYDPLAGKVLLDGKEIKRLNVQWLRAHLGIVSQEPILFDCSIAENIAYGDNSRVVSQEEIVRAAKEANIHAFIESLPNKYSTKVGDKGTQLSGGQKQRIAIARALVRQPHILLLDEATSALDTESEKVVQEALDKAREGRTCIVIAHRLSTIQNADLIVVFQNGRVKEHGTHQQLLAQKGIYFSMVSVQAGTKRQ
TEST_SUMMARY: Vesicular transport inhibition assay, MDR1 (N-methyl quinidine)
CONDITION_PARAMETERS: follow-up assay, bottom constrained to 0
RECORDED_ENDPOINT: pIC50
pIC50 (log units): -log10 of the concentration in mol/L.

Read the entry Clc1ccc(C2(OCC3OCCO3)c3ccccc3C3=NCCN32)cc1 (stereo not shown) and write its reported pIC50. 4.68

* * *

ASSAYED_TARGET: OATP1B1 (Homo sapiens)
Sequence (Q9Y6L6 whole entry): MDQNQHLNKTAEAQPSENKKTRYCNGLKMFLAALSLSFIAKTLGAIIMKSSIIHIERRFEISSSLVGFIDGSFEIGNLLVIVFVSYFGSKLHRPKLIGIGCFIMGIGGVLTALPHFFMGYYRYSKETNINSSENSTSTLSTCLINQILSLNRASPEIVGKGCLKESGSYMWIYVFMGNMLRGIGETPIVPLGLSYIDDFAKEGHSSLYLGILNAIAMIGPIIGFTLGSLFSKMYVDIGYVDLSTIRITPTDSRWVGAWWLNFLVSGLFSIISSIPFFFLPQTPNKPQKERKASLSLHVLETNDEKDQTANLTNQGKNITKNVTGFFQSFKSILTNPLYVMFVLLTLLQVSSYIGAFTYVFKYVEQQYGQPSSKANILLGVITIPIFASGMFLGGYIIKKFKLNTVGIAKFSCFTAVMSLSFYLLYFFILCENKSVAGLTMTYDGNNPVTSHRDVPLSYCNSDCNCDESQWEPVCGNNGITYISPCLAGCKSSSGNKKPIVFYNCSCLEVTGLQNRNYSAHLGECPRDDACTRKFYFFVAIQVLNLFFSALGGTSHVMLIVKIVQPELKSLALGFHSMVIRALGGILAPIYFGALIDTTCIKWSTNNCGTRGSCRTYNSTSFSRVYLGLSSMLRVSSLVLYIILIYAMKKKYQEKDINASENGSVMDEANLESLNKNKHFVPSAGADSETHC
TEST_SUMMARY: Uptake transporter inhibition assay, OATP1B1 (estradiol-17-β-glucuronide)
CONDITION_PARAMETERS: human
RECORDED_ENDPOINT: inhibition at 30 μM (%)
Field format: number, assumed %, no unit text.

Read the entry OC1(c2ccc(Cl)cc2)c2ccccc2C2=NCCN21 (stereo not shown) [Compound A, reference compound] and write its reported inhibition at 30 μM. 6

Entry source: patent US20250108038A1
